Where these numbers come from: PubChem BioAssay (NCI)

System: U251 CNS
Method Notes: NCI tumour cell line growth inhibition, 48 h
Recorded TGI values for a group of compounds are listed next.

These recorded examples may help you get a feel for the data.
- Compound: "Cc1ccc(C2=Nc3ccccc3SC(c3cccc([N+](=O)[O-])c3)C2)cc1 (configuration not stated)"
  Measured Target: "U251 CNS"
  TGI: "16.9 µM"
- Compound: "O=[N+]([O-])c1cc(S(=O)(=O)Oc2ccccc2)ccc1Cl"
  Measured Target: "U251 CNS"
  TGI: "2.6 µM"
- Compound: "CN1COc2c(n(C)c(=O)[nH]c2=O)C1"
  Measured Target: "U251 CNS"
  TGI: "> 100 µM"
- Compound: "O=C(CC(=O)Nc1ccccc1)N/N=C/c1cc(N=Nc2ccc(Br)cc2)ccc1O"
  Measured Target: "U251 CNS"
  TGI: "> 10 µM"
- Compound: "Cc1cc(NCCCCCCCNc2cc(C)nc3cc([N+](=O)[O-])ccc23)c2ccc([N+](=O)[O-])cc2n1"
  Measured Target: "U251 CNS"
  TGI: "27.4 µM"
- Compound: "COc1cc(C(c2ccc3c(c2)OCO3)N2C(=O)CCC2C(=O)O)cc(OC)c1OC (configuration not stated)"
  Measured Target: "U251 CNS"
  TGI: "> 100 µM"
- Compound: "Cn1cc(-c2nonc2-c2cn(C)c3ccccc23)c2ccccc21"
  Measured Target: "U251 CNS"
  TGI: "> 100 µM"
- Compound: "Nc1ccc(C(=O)NN2C(=O)C(Cl)C2c2ccccc2)cc1 (configuration not stated)"
  Measured Target: "U251 CNS"
  TGI: "> 100 µM"
- Compound: "CCC1(O)C(=O)OCc2c1cc1n(c2=O)Cc2cc3cc(N)ccc3nc2-1 (configuration not stated)"
  Measured Target: "U251 CNS"
  TGI: "0.129 µM"
- Compound: "O=C(O)COc1c(Cl)cc(Cl)c2cccnc12"
  Measured Target: "U251 CNS"
  TGI: "> 100 µM"

Tell me reported TGI for COc1ccc(C2[C@@H](Cl)C(=O)N2c2cc(OC)c(OC)c(OC)c2)cc1Cl (some centres not stated) , tested with U251 CNS.
21.3 µM

Item: "Brc1ccc(-c2cn3ccncc3n2)cc1"
> 100 µM
